Molecular target: ER (Homo sapiens, UniProt P03372)
Construct: endogenous in cells
Sequence (P03372 1-595): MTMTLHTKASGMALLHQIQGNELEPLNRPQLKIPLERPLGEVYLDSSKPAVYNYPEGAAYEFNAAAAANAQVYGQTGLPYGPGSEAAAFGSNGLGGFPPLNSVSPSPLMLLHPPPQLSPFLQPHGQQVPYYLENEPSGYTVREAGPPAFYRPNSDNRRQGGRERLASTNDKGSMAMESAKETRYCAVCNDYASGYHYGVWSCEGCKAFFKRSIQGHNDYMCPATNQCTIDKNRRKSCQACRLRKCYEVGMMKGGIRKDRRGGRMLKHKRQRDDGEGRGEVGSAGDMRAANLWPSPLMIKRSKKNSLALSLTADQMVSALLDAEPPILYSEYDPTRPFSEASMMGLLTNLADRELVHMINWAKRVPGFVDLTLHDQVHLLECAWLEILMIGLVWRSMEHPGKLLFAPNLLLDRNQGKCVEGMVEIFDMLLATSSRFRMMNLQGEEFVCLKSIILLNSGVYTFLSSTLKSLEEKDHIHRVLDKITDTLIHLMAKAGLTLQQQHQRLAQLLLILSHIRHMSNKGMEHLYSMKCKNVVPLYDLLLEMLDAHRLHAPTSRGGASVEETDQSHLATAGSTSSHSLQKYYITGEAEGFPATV
Test: Relative binding affinity (RBA)
Description: Example compounds were assayed to determine ER downregulation, relative binding affinity, and ER antagonism.
quantity: RBA (%)

Answered cases to consult:
[
  {
    "compound_smiles": "Cc1cc(F)ccc1C(=O)c1sc2cc(O)ccc2c1Oc1ccc(OC2CN(CCCF)C2)cc1",
    "RBA (%)": 38.1
  },
  {
    "compound_smiles": "Cc1ccccc1C(=O)c1sc2cc(O)ccc2c1Oc1ccc(OCCN2CCCCC2)cc1",
    "RBA (%)": 91.8
  },
  {
    "compound_smiles": "Cc1ccccc1C(=O)c1sc2cc(O)ccc2c1Oc1ccc(OC2CN(CCCF)C2)cc1",
    "RBA (%)": 27.8
  },
  {
    "compound_smiles": "Cc1ccccc1C(=O)c1sc2cc(O)ccc2c1Oc1ccc(OCCN2CC(CF)C2)cc1",
    "RBA (%)": 46.5
  }
]

(P) O=C(c1ccccc1)c1sc2cc(O)ccc2c1Oc1ccc(OCCN2CC(CF)C2)cc1
(Q) O=C(c1cccc(F)c1)c1sc2cc(O)ccc2c1Oc1ccc(OCCN2CC(CF)C2)cc1
(R) O=C(c1ccc(F)cc1)c1sc2cc(O)ccc2c1Oc1ccc(OCCN2CC(CF)C2)cc1
Your job: order these 3 records by RBA (%), ascending. Answer by listing the labels in the order asked for. R, P, Q
